Record form. Attribute: Ki. Fill in for each entry.
molecular target: cloned human dopamine D3 receptors (Homo sapiens, UniProt P35462); construct: expressed in transfected cells; membrane homogenate; assay: [N-Methyl-3H]Spiroperidol binding to cloned human dopamine D3 receptors (Protocol 1); conditions: the 13th table, unit inferred; read-out: D3Ki
Sequence (P35462 whole entry): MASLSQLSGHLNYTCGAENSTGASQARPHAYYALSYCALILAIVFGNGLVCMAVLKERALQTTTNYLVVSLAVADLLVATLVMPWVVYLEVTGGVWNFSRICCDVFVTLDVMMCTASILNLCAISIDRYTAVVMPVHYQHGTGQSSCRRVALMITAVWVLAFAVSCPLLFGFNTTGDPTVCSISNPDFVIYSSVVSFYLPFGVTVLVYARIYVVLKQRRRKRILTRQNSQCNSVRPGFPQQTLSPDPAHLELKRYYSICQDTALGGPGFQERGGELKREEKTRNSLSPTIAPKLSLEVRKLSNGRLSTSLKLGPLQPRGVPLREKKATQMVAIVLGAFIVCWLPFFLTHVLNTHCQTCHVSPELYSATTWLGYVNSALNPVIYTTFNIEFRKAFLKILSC
Field note: include the unit after the figure.

Ask: For CSc1nsc(SC)c1C(=O)NCCCCN1CCCN(c2csc3cc(F)ccc23)CC1 [S981838] , what is its reported Ki?
Reply: 6 nM

Ask: Also O=C(NCCCCCN1CCC(c2noc3ccsc23)CC1)c1ccccc1 [compound 816212] ?
Reply: 570 nM

Ask: Also O=C(NCCCCN1CCCN(c2csc3cc(C(F)(F)F)ccc23)CC1)c1ccc(-c2ccccc2F)cc1 [S908665] ?
Reply: 20.3 nM

Ask: Also O=C(NCCCCN1CCCN(c2csc3cc(F)ccc23)CC1)c1cccnc1Oc1ccccc1 [S981834] ?
Reply: 1.1 nM

Ask: Also Cc1oc(-c2ccc(Cl)cc2)cc1C(=O)NCCCCN1CCCN(c2csc3cc(C(F)(F)F)ccc23)CC1 [S980663] ?
Reply: 96 nM

Ask: Also Cc1ccc(Sc2ncccc2C(=O)NCCCCN2CCCN(c3csc4cc(F)ccc34)CC2)cc1 [S981835] ?
Reply: 1.2 nM

Ask: Also O=C(NCCCCN1CCCN(c2csc3cc(C(F)(F)F)ccc23)CC1)c1ccsc1 [S980656] ?
Reply: 28 nM

Ask: Also O=C(NCCCCN1CCCN(c2csc3cc(C(F)(F)F)ccc23)CC1)c1cnc2ccccc2n1 [S980643] ?
Reply: 96 nM
